meta.source: ChEMBL document CHEMBL1201862

target: Cytochrome P450 2D6 (Homo sapiens);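 also: CYP2D6 member of a cytochrome P450 panel assay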
Catalogue of AC50 readings, one per entry.

Illustrative cases are given below, each with its answer.
CC(C)(C)NS(=O)(=O)c1ccc(NC(=O)c2cc(-c3ccccc3)nc3ccccc23)cc1 ... 3.98 µM (inconclusive)
COc1ccc(CNc2ccnc(-c3ccccc3Cl)n2)c(OC)c1 ... 39.8 µM (inconclusive)
COc1ccc(C(=O)Nc2ccc(OCC(F)(F)C(F)F)c(C(F)(F)F)c2)cc1OC ... 22.4 µM (inconclusive)
Cc1cc(C)n(-c2nnc(C)n2/N=C/c2ccccc2OCc2ccccc2Cl)n1 ... 28.2 µM (inconclusive)
O=C(NC12CC3CC(CC(C3)C1)C2)C12CC3CC(C1)CC(n1cnc(Cl)n1)(C3)C2 ... 11.2 µM (inconclusive)

Would you kindly look at the next entry?
For the record Cc1cccc(NC(S)=Nc2ccc(Br)cc2)c1 , what value of AC50 is listed for Cytochrome P450 2D6 (Homo sapiens)? 8.91 µM (inconclusive)

* * *

Catalogue of IC50 readings, one per entry.
target: UniProt:P34707; assay type: functional
Sequence (P34707 whole entry): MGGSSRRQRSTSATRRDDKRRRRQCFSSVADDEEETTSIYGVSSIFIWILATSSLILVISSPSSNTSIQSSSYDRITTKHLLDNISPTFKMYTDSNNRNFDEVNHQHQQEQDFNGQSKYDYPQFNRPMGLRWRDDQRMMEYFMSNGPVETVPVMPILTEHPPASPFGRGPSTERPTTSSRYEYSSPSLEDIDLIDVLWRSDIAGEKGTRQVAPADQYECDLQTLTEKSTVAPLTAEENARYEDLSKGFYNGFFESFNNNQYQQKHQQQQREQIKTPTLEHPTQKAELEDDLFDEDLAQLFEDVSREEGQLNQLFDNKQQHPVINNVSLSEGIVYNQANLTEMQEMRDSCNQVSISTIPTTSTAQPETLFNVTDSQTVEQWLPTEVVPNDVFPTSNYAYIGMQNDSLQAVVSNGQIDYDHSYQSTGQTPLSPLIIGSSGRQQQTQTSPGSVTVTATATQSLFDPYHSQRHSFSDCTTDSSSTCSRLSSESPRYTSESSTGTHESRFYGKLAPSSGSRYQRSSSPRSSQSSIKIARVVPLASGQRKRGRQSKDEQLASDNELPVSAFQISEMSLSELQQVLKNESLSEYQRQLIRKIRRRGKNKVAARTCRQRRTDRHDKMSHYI
Activity calls are given as the source filed them.

Illustrative cases are given below, each with its answer.
CN1/C(=C\C(=O)Nc2cccc(Cl)c2)C(C)(C)c2ccccc21 ... > 100 µM (inactive)
CCc1ccc(Nc2oc(C)cc(=O)c2C(C)=O)cc1 ... > 100 µM (inactive)
CC(C)C(c1nnnn1Cc1ccco1)N1CCN(C2CCCC2)CC1 (stereo not given) ... > 100 µM (inactive)
Cc1nnc(-c2cccc(Br)c2)c2cn(-c3cccc(Br)c3)nc12 ... > 100 µM (inactive)
CCCCCOC(=O)c1ccc(NC(=O)c2ccco2)cc1 ... > 100 µM (inactive)

For the record Fc1ccc(N2CCN(c3cnc4ccccc4n3)CC2)cc1 , what value of IC50 is listed for UniProt:P34707? 72.8 µM (inactive)

For the record COc1ccccc1CN(Cc1cc2c(C)ccc(C)c2nc1O)Cc1nnnn1Cc1ccco1 , what value of IC50 is listed for UniProt:P34707? > 100 µM (inactive)

For the record Cc1[nH]c2ccccc2c1SCc1ccccc1 , what value of IC50 is listed for UniProt:P34707? 42.6 µM (active)

For the record CC(C)CCNC(=O)NC(=O)COc1c(F)c(F)cc(F)c1F , what value of IC50 is listed for UniProt:P34707? > 100 µM (inactive)

For the record O=S(=O)(Cc1ccc(Cl)cc1)Oc1ccc(Cl)cc1 , what value of IC50 is listed for UniProt:P34707? > 100 µM (inactive)

* * *

target: Short transient receptor potential channel 4 (Mus musculus, UniProt Q9QUQ5); test: mouse TRPC4 channel activators, dose response, cell-based, HEK293 TRPC4/mu-opioid, Fluo-4 calcium (AID 434937); type: functional
Sequence (Q9QUQ5 whole entry): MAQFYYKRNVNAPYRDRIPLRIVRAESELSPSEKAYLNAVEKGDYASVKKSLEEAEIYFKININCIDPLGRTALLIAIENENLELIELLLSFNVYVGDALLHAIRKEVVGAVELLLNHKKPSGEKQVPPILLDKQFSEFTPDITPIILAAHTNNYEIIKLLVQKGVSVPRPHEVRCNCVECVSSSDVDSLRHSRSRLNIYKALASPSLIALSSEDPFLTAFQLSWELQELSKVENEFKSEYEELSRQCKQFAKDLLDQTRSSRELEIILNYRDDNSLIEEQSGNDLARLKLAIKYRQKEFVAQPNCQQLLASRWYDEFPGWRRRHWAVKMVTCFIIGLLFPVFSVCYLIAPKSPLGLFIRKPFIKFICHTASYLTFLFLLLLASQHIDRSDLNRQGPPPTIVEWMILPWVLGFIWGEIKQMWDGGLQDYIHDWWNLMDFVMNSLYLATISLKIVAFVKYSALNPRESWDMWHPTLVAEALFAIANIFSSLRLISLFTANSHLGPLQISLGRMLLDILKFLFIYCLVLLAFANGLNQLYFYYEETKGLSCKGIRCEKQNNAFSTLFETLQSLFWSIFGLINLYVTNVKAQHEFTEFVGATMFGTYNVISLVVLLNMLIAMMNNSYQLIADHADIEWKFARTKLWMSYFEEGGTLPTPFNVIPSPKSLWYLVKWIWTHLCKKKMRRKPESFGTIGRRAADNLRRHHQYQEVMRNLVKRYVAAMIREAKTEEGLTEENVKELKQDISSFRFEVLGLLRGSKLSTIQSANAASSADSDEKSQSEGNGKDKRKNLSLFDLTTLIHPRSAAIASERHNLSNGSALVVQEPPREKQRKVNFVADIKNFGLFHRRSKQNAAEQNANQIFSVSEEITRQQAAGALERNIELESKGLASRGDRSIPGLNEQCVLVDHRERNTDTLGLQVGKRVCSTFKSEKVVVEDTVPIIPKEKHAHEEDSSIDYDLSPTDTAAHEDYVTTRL
Calls of active or inactive are those of the source.
Catalogue of EC50 readings, one per entry.

# EC50 lookup, item CCN(CC)CCCOc1ccc(Cl)c(Cl)c1 2.37 µM (active)

# EC50 lookup, item CC(=O)n1cc([C@H]2C=C(C(=O)NCc3ccccc3)O[C@@H](OCc3ccc(CO)cc3)C2)c2ccccc21 8.41 µM (active)

# EC50 lookup, item Cc1onc(-c2ccccc2)c1C(=O)NC(=S)NNC(=O)c1ccco1 10.6 µM (active)

# EC50 lookup, item COc1ccc2nc(NS(=O)(=O)c3ccc(NC(C)=O)cc3)sc2c1 3.76 µM (active)

# EC50 lookup, item O=C(Nc1ccncc1)c1ccc(Cl)c(S(=O)(=O)N2CCc3ccccc32)c1 5.31 µM (active)

* * *

target: G-protein coupled receptor 55 (Homo sapiens); assay: GPR55 agonists via beta-arrestin recruitment, primary screen, imaging, U2OS cells, beta-arrestin-GFP redistribution (AID 1961); type: functional
Sequence (Q9Y2T6 whole entry): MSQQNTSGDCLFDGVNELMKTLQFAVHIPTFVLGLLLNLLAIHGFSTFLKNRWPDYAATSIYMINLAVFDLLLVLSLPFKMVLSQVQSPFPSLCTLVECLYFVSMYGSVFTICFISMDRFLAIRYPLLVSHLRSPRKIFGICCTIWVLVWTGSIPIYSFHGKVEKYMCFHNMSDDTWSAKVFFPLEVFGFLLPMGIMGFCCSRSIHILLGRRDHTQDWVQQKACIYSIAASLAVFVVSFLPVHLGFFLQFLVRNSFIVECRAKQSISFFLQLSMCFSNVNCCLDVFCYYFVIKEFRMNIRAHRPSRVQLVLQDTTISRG
Calls of active or inactive are those of the source.
Tick one outcome: active, inactive

Worked examples follow.
COc1ccc(-c2csc3nc(-c4ccccc4OC)oc(=O)c23)cc1 ... inactive
COc1ccccc1/C=C/C(=O)NC(=S)Nc1ccc(S(=O)(=O)N(C)c2ccccc2)cc1 ... active

Short answer needed: outcome of this test for COc1ccc(SC[C@H](CC(C)C)N2CCN(CCc3ccccc3)CCC2=O)cc1 ? inactive

Short answer needed: outcome of this test for N#CC1=C(S)N(c2ccccc2)C(c2ccc(-c3cc(Cl)ccc3Cl)o2)NC1=O (centres undefined) ? inactive

* * *

Catalogue of EC50 readings, one per entry.
target: UniProt:Q9XUB2; assay: MEX-5/TCR-2 RNA interaction inhibitors, dose response, biochemical, C. elegans, fluorescence polarization (AID 1960)
Sequence (Q9XUB2 whole entry): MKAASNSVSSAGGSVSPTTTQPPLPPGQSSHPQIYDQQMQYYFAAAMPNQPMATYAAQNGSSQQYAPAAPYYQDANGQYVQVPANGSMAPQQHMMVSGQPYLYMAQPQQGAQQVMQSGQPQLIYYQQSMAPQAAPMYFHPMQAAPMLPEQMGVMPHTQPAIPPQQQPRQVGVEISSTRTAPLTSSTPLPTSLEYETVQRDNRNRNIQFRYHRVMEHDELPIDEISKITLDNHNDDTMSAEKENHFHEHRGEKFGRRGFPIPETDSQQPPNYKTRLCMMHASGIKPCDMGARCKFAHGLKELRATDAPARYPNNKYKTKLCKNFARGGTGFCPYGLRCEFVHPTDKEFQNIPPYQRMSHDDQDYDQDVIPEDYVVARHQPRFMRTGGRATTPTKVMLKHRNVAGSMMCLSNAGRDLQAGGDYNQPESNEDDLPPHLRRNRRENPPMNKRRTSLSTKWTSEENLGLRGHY
The source made the active and inactive calls.

Oc1c(Cl)cc(Cl)c(Cl)c1Cc1c(O)c(Cl)cc(Cl)c1Cl ... 19.1 µM (inconclusive)
C=CCNC(=S)Nc1cc(Cl)ccc1OC ... > 300 µM (not active)
CSc1nnc(N2C(=O)C(O)=C(C(=O)c3ccco3)C2c2ccccc2)s1 (centres undefined) ... 76.6 µM (active)

# EC50 lookup, item Cc1ccc(Cn2c(=N)c(C(=O)NCC3CCCO3)cc3c(=O)n4ccccc4nc32)cc1 (centres undefined) > 300 µM (not active)

* * *

Catalogue of AC50 readings, one per entry.
molecular target: UniProtKB P43351; format: functional, biochemical
Sequence (P43351 whole entry): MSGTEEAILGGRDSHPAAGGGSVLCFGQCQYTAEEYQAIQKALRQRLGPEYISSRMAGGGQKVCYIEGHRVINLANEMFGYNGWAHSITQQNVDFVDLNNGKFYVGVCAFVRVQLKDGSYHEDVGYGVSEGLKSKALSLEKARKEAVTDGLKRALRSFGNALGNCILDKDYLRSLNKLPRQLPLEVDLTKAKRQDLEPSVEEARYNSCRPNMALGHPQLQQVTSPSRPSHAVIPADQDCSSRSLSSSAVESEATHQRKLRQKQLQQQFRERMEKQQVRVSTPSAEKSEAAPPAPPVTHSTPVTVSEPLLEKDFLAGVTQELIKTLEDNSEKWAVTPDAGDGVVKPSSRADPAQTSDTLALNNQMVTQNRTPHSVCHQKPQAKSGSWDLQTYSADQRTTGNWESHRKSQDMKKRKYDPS
Activity calls are given as the source filed them.

CNC12CCc3cc(OC)c(OC)c(c31)-c1cc3c(cc1C2)OCO3 (configuration not stated) ... 9.25 µM (active)
CC[n+]1c(/C=C2\SC(c3ccccc3C)=CN2C)sc2ccccc21 ... 8.2 µM (active)

Would you kindly look at the next entry?
For the record CCCCCCOc1ccc(/C(C)=N/NC2=NCCN2)cc1 , what value of AC50 is listed for UniProtKB P43351? 23 µM (active)

* * *

Molecular target: COUP transcription factor 2 (Homo sapiens);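 also: HEK293 cells transiently cotransfected with COUP-TFII expression vector and reporter; luciferase reporter luminescence driven by COUP-TFII from the pX2-168 reporter plasmid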
Sequence (P24468 whole entry): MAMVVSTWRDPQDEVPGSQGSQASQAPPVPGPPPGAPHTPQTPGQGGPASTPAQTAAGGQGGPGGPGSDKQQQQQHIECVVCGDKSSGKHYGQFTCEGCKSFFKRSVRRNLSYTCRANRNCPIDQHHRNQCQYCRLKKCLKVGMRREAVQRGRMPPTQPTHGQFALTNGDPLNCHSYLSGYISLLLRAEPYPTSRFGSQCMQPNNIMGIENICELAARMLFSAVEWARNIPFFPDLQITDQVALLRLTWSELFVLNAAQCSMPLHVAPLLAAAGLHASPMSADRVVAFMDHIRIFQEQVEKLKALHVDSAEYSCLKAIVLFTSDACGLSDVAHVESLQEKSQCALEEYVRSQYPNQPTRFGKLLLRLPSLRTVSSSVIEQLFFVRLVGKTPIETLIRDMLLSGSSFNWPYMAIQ
Assay: Luminescence-based cell-based high throughput dose response assay to identify inhibitors of COUP-TFII (NR2F2).
Type: functional
The source made the active and inactive calls.
Tick one outcome: YES for active, NO for inactive

O=C(Nc1ccncc1)c1ccc(Cl)c(S(=O)(=O)N2CCc3ccccc32)c1 ... YES
COc1ccc(NC(=O)COc2ccc(N(C)S(=O)(=O)c3ccc(Cl)cc3)cc2)cc1OC ... YES
CC(=O)c1cn(CCOc2ccccc2C)c2ccccc12 ... YES

Now take the following compound into account.
Short answer needed: outcome of this test for c1ccc(CNc2ncnc3ccccc23)cc1 ? NO

* * *

molecular target: Streptokinase A (Streptococcus pyogenes serotype M1, UniProt P10520); test: S. pyogenes streptokinase expression inhibitors, potency, dose response, plasminogen activation absorbance, OD405 (AID 1914); format: functional, Streptococcus pyogenes M1 GAS;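 also: secreted streptokinase activity via plasminogen activation per viability signal from cell pellet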
Sequence (P10520 whole entry): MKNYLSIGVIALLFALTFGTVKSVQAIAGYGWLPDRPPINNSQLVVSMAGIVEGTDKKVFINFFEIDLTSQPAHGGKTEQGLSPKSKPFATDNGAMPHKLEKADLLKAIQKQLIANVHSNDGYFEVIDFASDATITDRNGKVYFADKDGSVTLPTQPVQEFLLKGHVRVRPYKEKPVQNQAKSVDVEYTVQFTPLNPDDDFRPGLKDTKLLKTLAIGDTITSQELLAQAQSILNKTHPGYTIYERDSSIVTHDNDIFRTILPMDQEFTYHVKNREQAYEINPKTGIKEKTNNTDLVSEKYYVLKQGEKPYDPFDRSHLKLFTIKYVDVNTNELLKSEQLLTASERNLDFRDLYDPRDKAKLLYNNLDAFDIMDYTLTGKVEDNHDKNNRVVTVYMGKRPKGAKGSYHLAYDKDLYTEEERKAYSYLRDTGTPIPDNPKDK
Activity calls are given as the source filed them.
Catalogue of EC50 readings, one per entry.

Illustrative cases are given below, each with its answer.
O=C(Nc1cccnc1)Nc1cc(Cl)cc(Cl)c1 ... > 150 µM (not active)
CC(C)COC(=O)c1cccc2c1-c1ccccc1/C2=N\O ... > 50 µM (not active)
O=C1Nc2cc(C(=O)N3CCN(c4ccccn4)CC3)ccc2S/C1=C\c1ccccc1 ... > 150 µM (not active)
CSc1c(SCc2ccccc2)cnn(Cc2ccccc2)c1=O ... > 150 µM (not active)
CC(C)c1ccc(NC(=O)NC(C)c2ccc3c(c2)OCO3)cc1 (stereo not given) ... > 150 µM (not active)
Cc1cc(Cl)c2oc(C(=O)N3CCC(O)(c4ccccc4)CC3)c(C)c2c1 ... > 150 µM (not active)

# EC50 lookup, item CCOC(=O)c1c(NC(=S)N2CCN(C)CC2)sc(C)c1-c1ccccc1 22.4 µM (active)

# EC50 lookup, item COc1ccc(C2CC(c3ccccc3)=NN2C(=O)c2cccs2)cc1 (stereo not given) > 150 µM (not active)

# EC50 lookup, item CS(=O)(=O)Nc1ccc(C2=NN(C(=O)C3CCCCC3)C(c3cccs3)C2)cc1 (stereo not given) > 150 µM (not active)

# EC50 lookup, item COc1cc2ccccc2cc1C(=O)NC(=S)Nc1ccc(C(=O)O)cc1 > 150 µM (not active)

# EC50 lookup, item CCc1ccc(-c2ccc3nnc(SCC(N)=O)n3n2)cc1 > 150 µM (not active)

# EC50 lookup, item CCCCc1nc(NCc2ccccc2)c(C#N)c2c1CCCC2 2.96 µM (active)

# EC50 lookup, item O=C(NNc1nc2ccc(Cl)cc2s1)c1cc(-c2cccs2)nc2ccccc12 > 150 µM (not active)
